study system: nuclear factor-kappa B (NF-kB)-inducing kinase (NIK) (Homo sapiens, UniProt Q99558)
Construct: made in house; host or cells: baculovirus-infected insect cells
Sequence (Q99558 whole entry): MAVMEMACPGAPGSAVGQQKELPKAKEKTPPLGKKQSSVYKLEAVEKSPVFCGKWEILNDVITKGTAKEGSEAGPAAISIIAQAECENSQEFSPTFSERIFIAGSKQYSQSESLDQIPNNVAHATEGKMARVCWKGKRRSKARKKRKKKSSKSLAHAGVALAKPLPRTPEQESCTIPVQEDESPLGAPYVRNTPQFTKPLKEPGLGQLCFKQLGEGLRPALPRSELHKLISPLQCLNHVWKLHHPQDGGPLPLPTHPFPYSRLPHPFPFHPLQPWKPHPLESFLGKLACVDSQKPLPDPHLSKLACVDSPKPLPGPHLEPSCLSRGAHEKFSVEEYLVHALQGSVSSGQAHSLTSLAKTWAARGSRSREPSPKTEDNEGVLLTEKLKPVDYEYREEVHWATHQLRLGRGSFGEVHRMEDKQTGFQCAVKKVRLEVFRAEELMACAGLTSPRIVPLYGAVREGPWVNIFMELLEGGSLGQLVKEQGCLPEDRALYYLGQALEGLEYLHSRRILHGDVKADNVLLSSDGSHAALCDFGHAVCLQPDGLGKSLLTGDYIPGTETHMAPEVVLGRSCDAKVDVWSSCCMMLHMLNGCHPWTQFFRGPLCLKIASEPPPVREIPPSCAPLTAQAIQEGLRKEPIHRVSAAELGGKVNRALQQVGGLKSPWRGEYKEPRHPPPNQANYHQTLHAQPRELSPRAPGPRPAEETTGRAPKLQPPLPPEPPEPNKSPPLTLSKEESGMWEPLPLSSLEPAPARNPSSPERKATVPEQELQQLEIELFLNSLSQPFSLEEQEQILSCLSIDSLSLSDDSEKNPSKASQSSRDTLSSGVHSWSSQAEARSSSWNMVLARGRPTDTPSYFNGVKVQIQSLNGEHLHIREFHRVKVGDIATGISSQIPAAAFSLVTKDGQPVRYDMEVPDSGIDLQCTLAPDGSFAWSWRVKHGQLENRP
experiment: NIK Enzyme Inhibition Assay (Transcreener ADP assay)
Type: biochemical
condition description: purified NIK 0.2-1 nM, 10 uM ATP, fluorescence polarization, Morrison's quadratic equation; read-out: inhibitory value (Ki) for NIK
recorded endpoint: log10(Ki) (log10 of the value in nM)
Heads up, the numbers here are log10 of Ki in nM units.

Name the reported log10(Ki) value associated with the compound CC(O)(C#Cc1ccc2c(C(=O)NC3COC3)nn(-c3ccnc(N)n3)c2c1)c1ncccn1 (stereo not shown) [Example T1.1-148]
-1.00

Requested field: log10(Ki). Item: Cc1nc2ccc(C#C[C@@](C)(O)c3nccs3)cc2n1-c1ncnc(N)n1 [Example T1.1-2]
-0.70

Could you tell me which log10(Ki) is on file for COCCOc1nc2ccc(C#C[C@@](C)(O)c3noc(C)n3)cc2n1-c1ccnc(N)n1 [Example T1.1-51] ?
0.60

Name the recorded log10(Ki) for CC1CN(C(=O)c2nn(-c3ccnc(N)n3)c3cc(C#CC(C)(O)c4ncccn4)ccc23)CC(C)O1 (stereo not shown) [Example T1.1-69] .
0.95

Which log10(Ki) value belongs to Cc1nn(-c2ccnc(N)n2)c2cc(C#CC(C)(O)c3ncccn3)ccc12 (stereo not shown) [Example T1-67] ?
0.60

What value of log10(Ki) has been reported for the following compound? CC(O)(C#Cc1ccc2nc(OCCO)n(-c3ccnc(N)n3)c2c1)c1ccc(Cl)cn1 (stereo not shown) [Example T1.1-133]
-0.40

Looking for the measured log10(Ki) of Cc1cc(C(C)(O)C#Cc2ccc3c(C)nn(-c4ccnc(N)n4)c3c2)on1 (stereo not shown) [Example T1-48] , can you help?
1.11

Need log10(Ki) of Cc1cc([C@](C)(O)C#Cc2ccc3c(C(=O)N4CCOCC4)nn(-c4ccnc(N)n4)c3c2)no1 [Example T1.1-14] , thanks.
-0.10

# query: log10(Ki) of entry Cc1nc([C@](C)(O)C#Cc2ccc3c(c2)n(-c2ccnc(N)n2)c(=O)n3C)no1 [Example T1.1-31]
0.30

Endpoint output: log10(Ki) of Cc1nc([C@](C)(O)C#Cc2ccc3c(c2)n(-c2ccnc(N)n2)c(=O)n3CC2CC2)no1 [Example T1.1-81] . Value?
1.38

Field request: log10(Ki) | item: Nc1nccc(-n2nc(C(=O)N3CCOCC3)c3ccc(C#CC(O)(CF)CF)cc32)n1 [Example T1.1-86]
1.49

Can you look up the measured log10(Ki) of Cc1nc([C@](C)(O)C#Cc2ccc3nc(OCCF)n(-c4ccnc(N)n4)c3c2)no1 [Example T1.1-122] for me?
-0.52

Bench note: what log10(Ki) did Cc1cc(C(C)(O)C#Cc2ccc3nc(C4CC4)n(-c4ncnc(N)n4)c3c2)no1 (stereo not shown) [Example T1-60] show?
0.34

Look up log10(Ki): CC(O)(C#Cc1ccc2c(C(=O)N3CC(O)C3)nn(-c3ccnc(N)n3)c2c1)c1ncccn1 (stereo not shown) [Example T1.1-146]
3.53

Need log10(Ki) of CC(C)(O)C#Cc1ccc2nc(OC3COC3)n(-c3ccnc(N)n3)c2c1 [Example T1.1-96] , thanks.
2.00

* * *

study system: nuclear factor-kappa B (NF-kB)-inducing kinase (NIK) (Homo sapiens, UniProt Q99558)
Construct: made in house; host or cells: baculovirus-infected insect cells
experiment: NIK Enzyme Inhibition Assay (Transcreener ADP assay)
Format: biochemical
condition description: purified NIK 0.2-1 nM, 10 uM ATP, fluorescence polarization, Morrison's quadratic equation; read-out: inhibitory value (Ki) for NIK
recorded endpoint: Ki (nM)
Please reply with the bare figure in nM and do not write the unit itself.

Give its Ki value. Item: CC(O)(C#Cc1ccc2cnn(-c3ccnc(N)n3)c2c1)C(F)F (stereo not drawn)
190

So what does the record say about Ki for CC(O)(C#Cc1ccc2ncn(-c3ccnc(N)n3)c2c1)CF (stereo not drawn) ?
2.3

Could you share which Ki value was measured for `CC1(C(=O)Nc2cnc(N)nc2-n2ncc3ccc(C#N)cc32)COC1` ?
559

I have this compound here, `Cc1cc([C@](C)(O)C#Cc2ccc3c(C(C)(C)O)nn(-c4ccnc(N)n4)c3c2)no1` , and I need its recorded Ki.
0.5

Name the reported Ki value associated with the compound CN(C)Cc1nn(-c2ccnc(N)n2)c2cc(C#CC(C)(O)c3ncco3)ccc12 (stereo not drawn)
1.3

If you can, please state the reported Ki value of CC(O)(C#Cc1ccc2c(C(=O)N3CC4(COC4)C3)nn(-c3ccnc(N)n3)c2c1)c1ncccn1 (stereo not drawn) .
6

* * *

study system: nuclear factor-kappa B (NF-kB)-inducing kinase (NIK) (Homo sapiens, UniProt Q99558)
Construct: made in house; host or cells: baculovirus-infected insect cells
experiment: NIK Enzyme Inhibition Assay (Transcreener ADP assay)
Format: biochemical
condition description: purified NIK 0.2-1 nM, 10 uM ATP, fluorescence polarization, Morrison's quadratic equation; read-out: inhibitory value (Ki) for NIK
Hi there, I'd appreciate the recorded Ki for every entry that follows.
State the answer as a number, implicitly in nM.

GET /values?readout=Ki&item= `CN(C)C(=O)c1nn(-c2ccnc(N)n2)c2cc(C#CC(C)(C)O)ccc12`
60

Give its Ki value. Item: `CN(C)Cc1nn(-c2ccnc(N)n2)c2cc(C#CC(C)(C)O)ccc12`
12

Requested read-out: Ki. Entry: CC(O)(C#Cc1ccc2c(CN3CCOCC3)nn(-c3ccnc(N)n3)c2c1)c1ncccn1 (stereo not shown)
20

Please report the recorded Ki for CC(C)(O)c1nn(-c2ccnc(N)n2)c2cc(C#CC3(O)CCc4cccnc43)ccc12 (stereo not shown) .
8

* * *

study system: nuclear factor-kappa B (NF-kB)-inducing kinase (NIK) (Homo sapiens, UniProt Q99558)
Construct: made in house; host or cells: baculovirus-infected insect cells
experiment: NIK Enzyme Inhibition Assay (Transcreener ADP assay)
Format: biochemical
condition description: purified NIK 0.2-1 nM, 10 uM ATP, fluorescence polarization, Morrison's quadratic equation; read-out: inhibitory value (Ki) for NIK
Can you tell me log10(Ki) for the items I'm about to list?
Log scale reminder: Ki in µM, then log10 taken.

// fetch nuclear factor-kappa B (NF-kB)-inducing kinase (NIK) (Homo sapiens, UniProt Q99558) log10(Ki) for Cn1ccc(C(C)(O)C#Cc2ccc3c(C(C)(C)O)nn(-c4ccnc(N)n4)c3c2)n1 (stereo not shown)
-1.06

Give the reported log10(Ki) for `Cc1cc([C@](C)(O)C#Cc2ccc3nc(OC4COC4)n(-c4ccnc(N)n4)c3c2)no1` (system: nuclear factor-kappa B (NF-kB)-inducing kinase (NIK) (Homo sapiens, UniProt Q99558)).
-3.00

Hi! What's the reported log10(Ki) for CCOc1nc2ccc(C#CC(C)(O)c3ncccn3)cc2n1-c1ccnc(N)n1 (stereo not shown) on nuclear factor-kappa B (NF-kB)-inducing kinase (NIK) (Homo sapiens, UniProt Q99558)?
-2.52

Query the reported log10(Ki) for nuclear factor-kappa B (NF-kB)-inducing kinase (NIK) (Homo sapiens, UniProt Q99558); item: CC(O)(C#Cc1ccc2ncn(-c3ccnc(N)n3)c2c1)C(F)F (stereo not shown)
-1.21

# get_value(readout= log10(Ki), system= nuclear factor-kappa B (NF-kB)-inducing kinase (NIK) (Homo sapiens, UniProt Q99558)) for `Cc1nc([C@](C)(O)C#Cc2ccc3c(C(C)(C)O)nn(-c4ccnc(N)n4)c3c2)no1`
-3.40

Reported log10(Ki) for nuclear factor-kappa B (NF-kB)-inducing kinase (NIK) (Homo sapiens, UniProt Q99558), given `CC(C)(O)C#Cc1ccc2ncn(-c3ccnc(N)n3)c2c1` ?
-1.84

Which measured log10(Ki) belongs to Cc1nc2ccc(C#CC(C)(O)c3nc(CO)cs3)cc2n1-c1ncnc(N)n1 (stereo not shown) , tested on nuclear factor-kappa B (NF-kB)-inducing kinase (NIK) (Homo sapiens, UniProt Q99558)?
0.23

Value wanted: log10(Ki) (nuclear factor-kappa B (NF-kB)-inducing kinase (NIK) (Homo sapiens, UniProt Q99558)) of entry CC(O)(C#Cc1ccc2c(CN3CCOCC3)nn(-c3ccnc(N)n3)c2c1)c1nccs1 (stereo not shown)
-2.77

State its log10(Ki) on nuclear factor-kappa B (NF-kB)-inducing kinase (NIK) (Homo sapiens, UniProt Q99558): Cc1nc2ccc(C#CC3(O)CC(CO)C3)cc2n1-c1ncnc(N)n1 (stereo not shown)
0.59

# get_value(readout= log10(Ki), system= nuclear factor-kappa B (NF-kB)-inducing kinase (NIK) (Homo sapiens, UniProt Q99558)) for Cc1cc(C(C)(O)C#Cc2ccc3nc(OC4CN(CCO)C4)n(-c4ccnc(N)n4)c3c2)no1 (stereo not shown)
-0.99

What measured log10(Ki) is associated with `Cc1cc([C@](C)(O)C#Cc2ccc3[nH]c(=O)n(-c4ccnc(N)n4)c3c2)no1` on nuclear factor-kappa B (NF-kB)-inducing kinase (NIK) (Homo sapiens, UniProt Q99558)?
-4.00

Request body: readout log10(Ki), system nuclear factor-kappa B (NF-kB)-inducing kinase (NIK) (Homo sapiens, UniProt Q99558), query `COCCOc1nc2ccc(C#C[C@@](C)(O)c3cc(C)on3)cc2n1-c1ccnc(N)n1` . Return the value.
-2.52

For the record Cc1nn(-c2ccnc(N)n2)c2cc(C#CC(C)(O)C(=O)N3CC(O)C3)ccc12 (stereo not shown) , what value of log10(Ki) is listed for nuclear factor-kappa B (NF-kB)-inducing kinase (NIK) (Homo sapiens, UniProt Q99558)?
-0.51

What reported log10(Ki) corresponds to Cc1cc(C(C)(O)C#Cc2ccc3c(C(=O)N(C)C)nn(-c4ccnc(N)n4)c3c2)no1 (stereo not shown) on nuclear factor-kappa B (NF-kB)-inducing kinase (NIK) (Homo sapiens, UniProt Q99558)?
-3.31

Give recorded log10(Ki) with nuclear factor-kappa B (NF-kB)-inducing kinase (NIK) (Homo sapiens, UniProt Q99558) for the following compound: `C[C@@](O)(C#Cc1ccc2[nH]c(=O)n(-c3ccnc(N)n3)c2c1)c1nccs1`
-3.96

Record lookup: for nuclear factor-kappa B (NF-kB)-inducing kinase (NIK) (Homo sapiens, UniProt Q99558), what log10(Ki) belongs to CC(O)(C#Cc1ccc2c(C(=O)N3CC(C#N)C3)nn(-c3ccnc(N)n3)c2c1)c1ncccn1 (stereo not shown) ?
-2.40

Which log10(Ki) is reported with nuclear factor-kappa B (NF-kB)-inducing kinase (NIK) (Homo sapiens, UniProt Q99558) for this entry: `Cc1nc([C@](C)(O)C#Cc2ccc3c(C(C)(C)O)nn(-c4nc(N)ncc4Cl)c3c2)no1` ?
-2.40

Which log10(Ki) is reported with nuclear factor-kappa B (NF-kB)-inducing kinase (NIK) (Homo sapiens, UniProt Q99558) for this entry: CC1CN(C(=O)c2nn(-c3ccnc(N)n3)c3cc(C#CC(C)(O)c4ncccn4)ccc23)CC(C)O1 (stereo not shown) [Example T1.1-74] ?
-1.89

# query: log10(Ki) | item CN1CCN(C(=O)c2nn(-c3ccnc(N)n3)c3cc(C#CC(C)(O)c4ncccn4)ccc23)CC1 (stereo not shown) | system: nuclear factor-kappa B (NF-kB)-inducing kinase (NIK) (Homo sapiens, UniProt Q99558)
-1.28

Lab note: need log10(Ki) with nuclear factor-kappa B (NF-kB)-inducing kinase (NIK) (Homo sapiens, UniProt Q99558) for entry `COc1ncccc1Nc1ncnc(-n2ncc3ccc(C#CC(C)(C)O)cc32)n1` , please look it up.
0.32

Lab note: need log10(Ki) with nuclear factor-kappa B (NF-kB)-inducing kinase (NIK) (Homo sapiens, UniProt Q99558) for entry Cc1cc(C(C)(O)C#Cc2ccc3c(C(NC4CCCC4)C4CC4)nn(-c4ccnc(N)n4)c3c2)no1 (stereo not shown) [Example T1.1-79] , please look it up.
-1.70

Quick check: log10(Ki) on nuclear factor-kappa B (NF-kB)-inducing kinase (NIK) (Homo sapiens, UniProt Q99558), item Cc1cc(C(C)(O)C#Cc2ccc3c(C(=O)N4CCCC4)nn(-c4ccnc(N)n4)c3c2)no1 (stereo not shown) ?
-2.90

Param readout= log10(Ki); system= nuclear factor-kappa B (NF-kB)-inducing kinase (NIK) (Homo sapiens, UniProt Q99558); entry= Cc1nc2ccc(C#CC(C)(O)CC3CC3)cc2n1-c1ncnc(N)n1 (stereo not shown) ; returns value.
-0.89

Notebook: pull reported log10(Ki) for nuclear factor-kappa B (NF-kB)-inducing kinase (NIK) (Homo sapiens, UniProt Q99558), entry Cc1cc(C(C)(O)C#Cc2ccc3nc(OCC4COC(C)(C)O4)n(-c4ccnc(N)n4)c3c2)no1 (stereo not shown)
-2.05

Request: log10(Ki), test system nuclear factor-kappa B (NF-kB)-inducing kinase (NIK) (Homo sapiens, UniProt Q99558), entry Cc1nn(-c2ccnc(N)n2)c2cc(C#CC(C)(O)c3cnccn3)ccc12 (stereo not shown)
-1.77

Fill in the recorded log10(Ki) for this compound, with nuclear factor-kappa B (NF-kB)-inducing kinase (NIK) (Homo sapiens, UniProt Q99558) as test system: CC(O)(C#Cc1ccc2c(C(=O)N3CCOCC3)nn(-c3ccnc(N)n3)c2c1)c1ncco1 (stereo not shown)
-2.52

Notebook: pull reported log10(Ki) for nuclear factor-kappa B (NF-kB)-inducing kinase (NIK) (Homo sapiens, UniProt Q99558), entry CCOc1nc2ccc(C#CC3(O)CCn4ccnc43)cc2n1-c1ccnc(N)n1 (stereo not shown)
-2.70
